Notes on GI50 obtained with U251 CNS.

Reference set, count: 6
Compound	Tested System	GI50
Cc1ccc(/C=C2\COc3ccc(O)c(O)c3C2=O)cc1	U251 CNS	922 nM
COc1cc(C(=O)N2CCN(c3ccccn3)CC2)c(N)cc1OCc1ccccc1	U251 CNS	> 100000 nM
c1ccc2nc3c(cc2c1)Sc1cc2ccccc2[n+]2c1N3CC2	U251 CNS	24000 nM
Nc1ncc(-c2ccc3ncnc(N4CCc5ccc(Cl)cc54)c3c2)cn1	U251 CNS	2460 nM
CCOC(=O)c1ccc2c(c1)nc(-c1ccc(Cl)cc1)n2-c1cc(C(C)(C)C)[nH]n1	U251 CNS	3040 nM
CC12OC(CC(O)C1O)n1c3ccccc3c3c4c(c5c6ccccc6n2c5c31)C(=O)N(CCN1CCCC1)C4=O (stereo unspecified)	U251 CNS	488 nM

Query: Could you share what GI50 was measured for `c1ccc(CSCCNCCN(CCNCCSCc2ccccc2)CCNCCSCc2ccccc2)cc1` , tested on U251 CNS?
Response: 1520 nM

Query: Also `COc1cccc(C(=O)c2sc(Nc3ccc(N4CCN(C(C)C)CC4)cc3)nc2N)c1` ?
Response: 949 nM

Query: Another compound: `CCN(Cc1cccnc1)c1ccc(CO)c(Cl)c1`
Response: 3750 nM

Query: Now the compound CC(C)Cc1ccc(C(C)C(=O)NCc2ccc(Cn3c(=O)sn(CCCCl)c3=O)cc2)cc1 (stereo unspecified)
Response: 1630 nM

Query: Subsequent entry: `CCOC(=O)C1=C(C)N=C2SC=C(c3ccccc3)N2[C@H]1c1cn[nH]c1-c1ccc(Cl)cc1`
Response: 3800 nM

---

# Tested on: SK-OV-3 ovarian
# Protocol: NCI tumour cell line growth inhibition, 48 h
Item-by-item account of TGI

Known TGI results, listed for orientation:
Compound	Tested System	Recorded Value
CCOC(=O)C1C(=O)CN2CCc3c([nH]c4ccccc34)C12C(=O)OCC (stereo unspecified)	SK-OV-3 ovarian	> 100 µM
NC(=O)c1nnsc1N/N=C/c1ccc([N+](=O)[O-])cc1	SK-OV-3 ovarian	> 100 µM
O=C(NCc1ccccc1)c1cc2ccccc2oc1=Nc1ccccc1F	SK-OV-3 ovarian	47.5 µM

Please examine the following record next.
Query: Report TGI for CCCCCCCC/C=C(\Br)C(O)C(Br)Br (stereo unspecified) tested on SK-OV-3 ovarian.
Response: 90.6 µM

---

# System: T-47D breast
# Protocol: NCI tumour cell line growth inhibition, 48 h
Endpoint: TGI

The examples below pair each entry with its known result.
Compound	Tested System	TGI
CCn1c2ccccc2c2nnc(NCCCO)nc21	T-47D breast	> 100 µM
O=C(CI)OCC(COC(=O)CI)OC(=O)CI	T-47D breast	4.46 µM
CCOC(=O)c1nnsc1NC(=O)NCCCCCCn1c(=O)n(CCCCCCNC(=O)Nc2snnc2C(=O)OCC)c(=O)n(CCCCCCNC(=O)Nc2snnc2C(=O)OCC)c1=O	T-47D breast	> 100 µM

Please examine the following record next.
Query: What does the record list as TGI for `Cn1c(-c2ccccc2)c2cc3nc4ccccc4nc3cc2c1-c1ccccc1` ?
Response: > 100 µM

---

# System: OVCAR-4 ovarian
# Protocol: NCI tumour cell line growth inhibition, 48 h
Endpoint: GI50

Molecule	Tested System	GI50
Cc1ccc(C(=Nc2ccccc2)N=P(c2ccccc2)(c2ccccc2)c2ccccc2)cc1	OVCAR-4 ovarian	1.53 µM
Nc1ccn(C2OC(CO)C(O)C2(F)F)c(=O)n1 (stereo not given)	OVCAR-4 ovarian	> 100 µM
CC(C)Cc1ccc(C(C)C(=O)NCc2ccc(Cn3c(=O)sn(CCCCl)c3=O)cc2)cc1 (stereo not given)	OVCAR-4 ovarian	1.53 µM
C/C(=N\NC(=O)c1ccc(C(C)(C)C)cc1)c1ccc(O)cc1O	OVCAR-4 ovarian	0.306 µM

Query: Fill blank: measured GI50 of the molecule `O=C(Cc1csc2nc(-c3ccc(Br)cc3)cn12)N/N=C/c1ccccc1` is ____.
Response: 47.1 µM
